assayed-system: c-Src SH2;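 note: peptide library displayed on the E. coli surface as eCPX fusions, selected cells deep-sequenced, score is each peptide's frequency after selection divided by its frequency in the input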
test-summary: SH2 binding enrichment of the phosphorylated peptide, bacterial display (enrichment ratio); higher = better substrate or ligand; peptides without Tyr show the background
quantity-name: SH2 binding enrichment

Completed entries (count: 5):
{"columns": ["sequence-chain", "quantity-name", "result-number"],
 "data": [
  ["DRLASYRDKVR [KRT12_Y139_L140R]", "SH2 binding enrichment", 1.09],
  ["FGVTLYPNSGE [MEP1A_Y472_R476G]", "SH2 binding enrichment", 0.588],
  ["KVALLYKPYFY [POLE_Y100_P99L]", "SH2 binding enrichment", 1.36],
  ["AKLKDYYIFNK [CCDC42_Y149]", "SH2 binding enrichment", 0.823],
  ["LIDGFYRLTED [JAK2_Y373_A377E_YF]", "SH2 binding enrichment", 0.661]
]}

P = SSVKPYRVYCD [FGB_Y266]
Q = ACCLLYHGDVV [TUBA4A_Y319_R320H]
Qu. Of P and Q , whose reported SH2 binding enrichment is the larger number? // return label of chosen record
Ans. P
